meta.source: paper PMC10873366

- Subject Of Test: Sox2 full-length, unlabelled (UniProt P48431 1-317)
- Sequence (P48431 whole entry): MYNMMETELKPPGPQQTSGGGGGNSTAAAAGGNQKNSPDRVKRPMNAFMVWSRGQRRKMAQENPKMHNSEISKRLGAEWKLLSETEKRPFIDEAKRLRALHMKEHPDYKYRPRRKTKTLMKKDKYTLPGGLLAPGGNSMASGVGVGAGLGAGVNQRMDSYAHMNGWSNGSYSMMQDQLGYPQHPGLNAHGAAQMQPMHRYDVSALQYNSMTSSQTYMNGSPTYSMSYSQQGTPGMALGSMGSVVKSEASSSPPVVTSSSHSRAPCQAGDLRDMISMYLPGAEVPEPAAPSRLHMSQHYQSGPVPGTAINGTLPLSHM
- Experimental Protocol: smFRET titration; 200 mM salt; smFRET: 165 mM KCl or 200 mM salt (Supplementary Table 4), buffer details not in material; NMR: 20 mM NaH2PO4, 50 mM NaCl, 5 mM DTT, pH 5.5, 15 C
- Protocol Conditions: protein: recombinant; tags: His6-SUMO removed by ULP1; label: Cy3B and CF660R, one on each 5' end; blunt
pKd: −log10 of the molar value.
Measured Quantity: pKd

[[record]]
binder = "15 bp nonspecific DNA, labelled (dsDNA, 5' C6-amino linker on both strands) DNA 1: TCTATCTGTGTATGT DNA 2: ACATACACAGATAGA"
endpoint_value = 8.22

